Target: MC3-R (Homo sapiens, UniProt P41968)
Sequence (P41968 whole entry): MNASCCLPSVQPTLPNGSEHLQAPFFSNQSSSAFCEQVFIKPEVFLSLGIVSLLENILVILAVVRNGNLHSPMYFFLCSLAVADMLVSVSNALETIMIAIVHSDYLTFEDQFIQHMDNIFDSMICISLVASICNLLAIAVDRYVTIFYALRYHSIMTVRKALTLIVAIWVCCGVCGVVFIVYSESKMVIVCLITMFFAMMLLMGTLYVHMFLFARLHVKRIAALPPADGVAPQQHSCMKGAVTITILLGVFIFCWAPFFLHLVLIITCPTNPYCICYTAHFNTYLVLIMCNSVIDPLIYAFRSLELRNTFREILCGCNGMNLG
Experiment: Competitive inhibition binding assay, 125I-NDP-α-MSH, MC3-R
Parameters: expressed in transfected cells
Settings: 1 μM compound; inhibition of 125I-NDP-α-MSH binding; mean of triplicates; results less than 0% reported as 0%
Experimental Readout: Inhibition at 1 μM MC3-R (%)
Just the number please, in %, no unit attached.

Check out these entries, answers already filled in.
{"columns": ["Molecule", "Experimental Readout", "Assay Result"],
 "data": [
  ["N=C(N)c1ccc(C[C@H]2C(=O)N(CCc3ccc4ccccc4c3)CCN2C(=O)[C@H](N)Cc2ccc(Cl)cc2Cl)cc1 [Example 128]", "Inhibition at 1 μM MC3-R", 0],
  ["NCCCC[C@H]1C(=O)N(CCc2ccc3ccccc3c2)CCN1C(=O)[C@@H](Cc1ccc(Cl)cc1Cl)NC(=O)[C@@H](N)COCc1ccccc1 [Example 22]", "Inhibition at 1 μM MC3-R", 47],
  ["CC(=O)NCCCC1C(=O)N(CCc2ccc3ccccc3c2)CCN1C(=O)C(Cc1ccc(Cl)cc1Cl)NC(=O)C(N)COCc1ccccc1 (stereo not drawn) [Example 42]", "Inhibition at 1 μM MC3-R", 10],
  ["NCCCC[C@H]1C(=O)N(CCc2ccc3ccccc3c2)CCN1C(=O)[C@@H](Cc1ccc(Cl)cc1Cl)NC(=O)[C@H]1CC[C@@H](c2ccccc2)N1 [Example 27]", "Inhibition at 1 μM MC3-R", 9]
]}

Check MC3-R (Homo sapiens, UniProt P41968) data and give Inhibition at 1 μM MC3-R for N=C(N)NCCC[C@H]1C(=O)N(CCc2c[nH]c3ccccc23)CCN1C(=O)[C@@H](Cc1ccccc1Cl)NC(=O)[C@@H]1Cc2ccccc2CN1 [Example 18] . 50

Check MC3-R (Homo sapiens, UniProt P41968) data and give Inhibition at 1 μM MC3-R for NCCCC[C@H]1C(=O)N2C(CC[C@@H]2COc2ccc3ccccc3c2)N1C(=O)[C@@H](Cc1ccccc1Cl)NC(=O)[C@@H]1Cc2ccccc2N1 (stereo partly drawn) [Example 95] . 0

Check MC3-R (Homo sapiens, UniProt P41968) data and give Inhibition at 1 μM MC3-R for NCCCNC(=O)[C@@H]1C[C@@H](OCc2ccccc2)CN1C(=O)[C@@H](Cc1ccccc1)NC(=O)[C@H](N)Cc1cccc2ccccc12 [Example 166] . 13

Check MC3-R (Homo sapiens, UniProt P41968) data and give Inhibition at 1 μM MC3-R for NCCCNC(=O)[C@@H]1C[C@@H](OCc2ccccc2)CN1C(=O)[C@@H](Cc1ccccc1)NC(=O)C1(N)CCCC1 [Example 161] . 23

Check MC3-R (Homo sapiens, UniProt P41968) data and give Inhibition at 1 μM MC3-R for NCCCC[C@H]1C(=O)N2C(CC[C@@H]2COc2ccc3ccccc3c2)N1C(=O)[C@@H](Cc1ccccc1Cl)NC(=O)C1(N)CCc2ccccc2C1 (stereo partly drawn) [Example 89] . 0

Check MC3-R (Homo sapiens, UniProt P41968) data and give Inhibition at 1 μM MC3-R for CC(=O)NC(Cc1cnc[nH]1)C(=O)NC(Cc1ccccc1)C(=O)N1CC(OCc2ccccc2)CC1C(=O)NCCCN (stereo not drawn) [Example 139] . 46

Check MC3-R (Homo sapiens, UniProt P41968) data and give Inhibition at 1 μM MC3-R for N=C(N)NCCCC[C@H]1C(=O)N(CCc2ccc3ccccc3c2)CCN1C(=O)[C@H](N)Cc1ccc2ccccc2c1 [Example 71] . 73

Check MC3-R (Homo sapiens, UniProt P41968) data and give Inhibition at 1 μM MC3-R for N=C(N)NCCC[C@H]1C(=O)N2C(CC[C@@H]2COc2ccc3ccccc3c2)N1C(=O)[C@@H](Cc1ccc(Cl)cc1Cl)NC(=O)[C@@H](N)COCc1ccccc1 (stereo partly drawn) [Example 114] . 77

The measurements presented in this section are drawn from patent US7807678B2.
